Test: protein stability index of a GFP-peptide fusion (GPS, HEK-293T) (PSI 1-6); higher = more stable;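 also: 24-mer peptide tiles fused after GFP, lentivirally expressed, FACS-sorted into six equal bins by GFP/DsRed ratio, decoded by Illumina sequencing, PSI is the read-weighted mean bin number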
Conditions: treatment: MLN4924 1 uM, 8 h; c terminus: a fixed tail appended
Quick reference: protein stability index of the listed items.
Measurement Kind: protein stability index

> print(dat)
                                  chain         measurement.kind   val
 1      SLHDHDGSSGASDQDTLAPLPHPG [DVL3]  protein stability index  5.19
 2     EEDNWDPELMEHTEAESEQEGSSG [TEX19]  protein stability index  5.65
 3    LQLGAAKKPPVTFAEKGELRKSIF [TRIM29]  protein stability index  3.25
 4    WLQKLCCPCCFGRDCLVLNQGYLS [PI4K2A]  protein stability index     2
 5   YERPNVETIKCVVVGDNAVGKTRL [RHOBTB1]  protein stability index  3.86
 6      PPYLPLAVPEDLADRLVRVHGDPA [FUT8]  protein stability index  4.31
 7    PVQASQLEEEFDSDSGLSLDSSHS [NFE2L1]  protein stability index  5.46
 8   SKLLLSGTADGADLRTVDPETQAR [ANKRD17]  protein stability index  5.13
 9  LRDKTVMIIVAISPKYKQDVEGAE [TRAF3IP2]  protein stability index  2.97
10      LKSQPLPLRSSLPISLQATPATPA [TFE3]  protein stability index     4
11    PAVTPDPWGVQGGQESEVPYKREE [PKD2L1]  protein stability index  5.49
12     AAGVDHVILAVSYMSQVLEKEMKA [GMPPB]  protein stability index  2.44
13     ELQRQKEAEKLERQLALPATEQAA [NOP53]  protein stability index  5.42
14    PTQKALYNDVMQENYETVISLALF [ZNF75A]  protein stability index  2.47
15     LAKQPGVSVNAQTLDGRTPLHLAA [RIPK4]  protein stability index  4.02
16       YRFHEHWRFVLQRLVFLAAFVVYL [TSN]  protein stability index   2.8
17    GDSGERSEGEAMEICSEPVAASPA [ZNF511]  protein stability index  5.52
18      MRPWTGSWRWIMLILFAWGTLLFY [FUT8]  protein stability index     3
19    AAFVRAQADLLAHLVPEPDRLEEQ [DNAAF3]  protein stability index  4.12
20      VNFMYLQSLLQPKSSSVDSELTSL [SMG5]  protein stability index  2.15
21     GDKYEHHSYMGMRGFCAFLGSWLV [POMT2]  protein stability index  1.73
22       TPSFSGDSSSSCSDHCITSSDMMD [VDR]  protein stability index  5.11
23    NYLVRLSFHNLKFDCSTANKIFLR [ZNF277]  protein stability index  2.55
24   DSVLERWVNDPQRMDKRTLALLVL [GOLPH3L]  protein stability index  2.31
25  LNEEINIASSDSEVEIVGVQEHAR [C18orf25]  protein stability index  5.33
26  IEGAPEVTMSSLFKHILRTEGAFG [SLC25A25]  protein stability index  2.63
27   DTLADDVPGHQTPSDLDQFSDSSL [LURAP1L]  protein stability index  5.37
28     VAGILSLLLGTAYSFYLFHPLAYG [POMT2]  protein stability index  2.98
29     SSPGPWGLEALAGGDLMPAPADPT [FCHO1]  protein stability index  4.65
30     DVGCISVTVPSMLSRLLSRKRAVP [OR3A1]  protein stability index  2.85
31   AAGIGKLSTADGKAFADPEVLRRL [ANKRD17]  protein stability index  4.19
32    QRYILYWRKRFTEQPITDFCSVIR [ZNF277]  protein stability index  2.24
33     FKKQIWLLFEYPESSSPARGIAIV [KCNA4]  protein stability index  2.42
34  HLEINPDHPIVETLRQKAEADKND [HSP90AB1]  protein stability index  5.56
35    LAMLNAVTEDLRLKDWEHSIALRN [SCARA5]  protein stability index  2.93
36    IKQIQQLFEEILSNSRQLKWLSCG [FBXO33]  protein stability index  1.94
37      DEKYGVPSLEELGFDTDGLSSAVW [CRY1]  protein stability index  3.86
38      GRLAMDEIFQKPFQTLMFLVRDWS [ATL3]  protein stability index  2.09
39    SLKRHLKTHTGEKPHRCHNCGKSF [ZNF449]  protein stability index  2.97
40   ASIHWDWKIALLFVAFALCMFCLY [SLC35F2]  protein stability index  2.26
41    LLAQARDEAQGACLQQKQVVAEAQ [LRRC45]  protein stability index   4.9
42     KDGKAFHPTYEEKLKLVALHKQVL [ACBD3]  protein stability index  2.65
43   WFIHLVFVVLAFLTGVLCSYPNPN [TMEM192]  protein stability index  2.89
44    AVGYQPEYSKFCRMSYQDPAQLSC [NFE2L1]  protein stability index   2.2
45      DSSMILTVPGQALACGSNRFNKLG [NEK8]  protein stability index   3.2
